tested on: E. faecium; assay: microbe, parasite or virus in culture; format: cell-based; conditions: Enterococcus faecium, read-out: MIC value, E.faecium E1132, VAN,TEI,LNZ/VanA
# MIC per entry
metric: MIC

[[record]]
compound = "CN[C@H](CC(C)C)C(=O)N[C@H]1C(=O)N[C@@H](CC(N)=O)C(=O)N[C@H]2C(=O)N[C@H]3C(=O)N[C@H](C(=O)N[C@H](C(=O)O)c4cc(O)cc(O)c4-c4cc3ccc4O)[C@H](O[C@H]3C[C@](C)(N)[C@@H](O)[C@H](C)O3)c3ccc(c(Cl)c3)Oc3cc2cc(c3O[C@@H]2O[C@H](CO)[C@@H](O)[C@H](O)[C@H]2O[C@H]2C[C@](C)(NCc3ccc(-c4ccc(Cl)cc4)cc3)[C@@H](O)[C@H](C)O2)Oc2ccc(cc2Cl)[C@H]1O [ORI, oritavancin, reference compound]"
metric = "MIC"
result = "0.125 mg/L"

[[record]]
compound = "CC(=O)N[C@H]1[C@H](O[C@@H]2c3ccc(c(Cl)c3)Oc3cc4cc(c3O)Oc3ccc(cc3Cl)C[C@H]3NC(=O)[C@H](n5cc(COCCOCCCC(F)(F)C(F)(F)C(F)(F)C(F)(F)F)nn5)c5ccc(O)c(c5)Oc5cc(O)cc(c5)[C@H](NC3=O)C(=O)N[C@H]4C(=O)N[C@H]3C(=O)N[C@@H]2C(=O)N[C@H](C(=O)O)c2cc(O)cc(O)c2-c2cc3ccc2O)O[C@H](CO)[C@@H](O)[C@@H]1O"
metric = "MIC"
result = "> 8 mg/L"

[[record]]
compound = "CC(=O)N[C@H]1[C@H](O[C@@H]2c3ccc(c(Cl)c3)Oc3cc4cc(c3O)Oc3ccc(cc3Cl)C[C@H]3NC(=O)[C@H](NC(=O)CCC(F)(F)C(F)(F)C(F)(F)C(F)(F)C(F)(F)C(F)(F)C(F)(F)C(F)(F)F)c5ccc(O)c(c5)Oc5cc(O)cc(c5)[C@H](NC3=O)C(=O)N[C@H]4C(=O)N[C@H]3C(=O)N[C@@H]2C(=O)N[C@H](C(=O)O)c2cc(O)cc(O)c2-c2cc3ccc2O)O[C@H](CO)[C@@H](O)[C@@H]1O"
metric = "MIC"
result = "> 8 mg/L"

[[record]]
compound = "CC(=O)N[C@H]1[C@H](O[C@@H]2c3ccc(c(Cl)c3)Oc3cc4cc(c3O)Oc3ccc(cc3Cl)C[C@H]3NC(=O)[C@H](NC(=O)c5cc(OCCCSCCNC(=N)N)c(OCCCSCCNC(=N)N)c(OCCCSCCNC(=N)N)c5)c5ccc(O)c(c5)Oc5cc(O)cc(c5)[C@H](NC3=O)C(=O)N[C@H]4C(=O)N[C@H]3C(=O)N[C@@H]2C(=O)N[C@H](C(=O)O)c2cc(O)cc(O)c2-c2cc3ccc2O)O[C@H](CO)[C@@H](O)[C@@H]1O"
metric = "MIC"
result = "> 8 mg/L"


* * *

# MIC per entry
system: E. faecium; test: microbe, parasite or virus in culture; type: cell-based; details: Enterococcus faecium, read-out: MIC value, E.faecium E335, VAN,TEI,LNZ/VanA
metric: MIC

[[record]]
compound = "CC(=O)N[C@H]1[C@H](O[C@@H]2c3ccc(c(Cl)c3)Oc3cc4cc(c3O)Oc3ccc(cc3Cl)C[C@H]3NC(=O)[C@H](NC(=N)N)c5ccc(O)c(c5)Oc5cc(O)cc(c5)[C@H](NC3=O)C(=O)N[C@H]4C(=O)N[C@H]3C(=O)N[C@@H]2C(=O)N[C@H](C(=O)O)c2cc(O)cc(O)c2-c2cc3ccc2O)O[C@H](CO)[C@@H](O)[C@@H]1O"
systemtested = "E. faecium"
result = "0.125 µg/mL"

[[record]]
compound = "CN[C@H](CC(C)C)C(=O)N[C@H]1C(=O)N[C@@H](CC(N)=O)C(=O)N[C@H]2C(=O)N[C@H]3C(=O)N[C@H](C(=O)N[C@H](C(=O)O)c4cc(O)cc(O)c4-c4cc3ccc4O)[C@H](O[C@H]3C[C@](C)(N)[C@@H](O)[C@H](C)O3)c3ccc(c(Cl)c3)Oc3cc2cc(c3O[C@@H]2O[C@H](CO)[C@@H](O)[C@H](O)[C@H]2O[C@H]2C[C@](C)(NCc3ccc(-c4ccc(Cl)cc4)cc3)[C@@H](O)[C@H](C)O2)Oc2ccc(cc2Cl)[C@H]1O [ORI, oritavancin, reference compound]"
systemtested = "E. faecium"
result = "0.125 µg/mL"

[[record]]
compound = "CN[C@H](CC(C)C)C(=O)N[C@H]1C(=O)N[C@@H](CC(N)=O)C(=O)N[C@H]2C(=O)N[C@H]3C(=O)N[C@H](C(=O)N[C@H](C(=O)O)c4cc(O)cc(O)c4-c4cc3ccc4O)[C@H](O)c3ccc(c(Cl)c3)Oc3cc2cc(c3O[C@@H]2O[C@H](CO)[C@@H](O)[C@H](O)[C@H]2O[C@H]2C[C@](C)(N)[C@H](O)[C@H](C)O2)Oc2ccc(cc2Cl)[C@H]1O [VAN, vancomycin, reference compound]"
systemtested = "E. faecium"
result = "> 64 µg/mL"

[[record]]
compound = "CC(=O)N[C@H]1[C@H](O[C@@H]2c3ccc(c(Cl)c3)Oc3cc4cc(c3O)Oc3ccc(cc3Cl)C[C@H]3NC(=O)[C@H](n5cc(COCCCC(F)(F)C(F)(F)C(F)(F)C(F)(F)C(F)(F)C(F)(F)F)nn5)c5ccc(O)c(c5)Oc5cc(O)cc(c5)[C@H](NC3=O)C(=O)N[C@H]4C(=O)N[C@H]3C(=O)N[C@@H]2C(=O)N[C@H](C(=O)O)c2cc(O)cc(O)c2-c2cc3ccc2O)O[C@H](CO)[C@@H](O)[C@@H]1O"
systemtested = "E. faecium"
result = "> 8 µg/mL"

[[record]]
compound = "CC(=O)N[C@H]1[C@H](O[C@@H]2c3ccc(c(Cl)c3)Oc3cc4cc(c3O)Oc3ccc(cc3Cl)C[C@H]3NC(=O)[C@H](NC(=O)CCC(F)(F)C(F)(F)C(F)(F)C(F)(F)C(F)(F)C(F)(F)C(F)(F)C(F)(F)F)c5ccc(O)c(c5)Oc5cc(O)cc(c5)[C@H](NC3=O)C(=O)N[C@H]4C(=O)N[C@H]3C(=O)N[C@@H]2C(=O)N[C@H](C(=O)O)c2cc(O)cc(O)c2-c2cc3ccc2O)O[C@H](CO)[C@@H](O)[C@@H]1O"
systemtested = "E. faecium"
result = "> 8 µg/mL"

[[record]]
compound = "CC(=O)N[C@H]1[C@H](O[C@@H]2c3ccc(c(Cl)c3)Oc3cc4cc(c3O)Oc3ccc(cc3Cl)C[C@H]3NC(=O)[C@H](NC(=O)c5cc(OCCCSCCNC(=N)N)c(OCCCSCCNC(=N)N)c(OCCCSCCNC(=N)N)c5)c5ccc(O)c(c5)Oc5cc(O)cc(c5)[C@H](NC3=O)C(=O)N[C@H]4C(=O)N[C@H]3C(=O)N[C@@H]2C(=O)N[C@H](C(=O)O)c2cc(O)cc(O)c2-c2cc3ccc2O)O[C@H](CO)[C@@H](O)[C@@H]1O"
systemtested = "E. faecium"
result = "> 8 µg/mL"

[[record]]
compound = "CC(=O)N[C@H]1[C@H](O[C@@H]2c3ccc(c(Cl)c3)Oc3cc4cc(c3O)Oc3ccc(cc3Cl)C[C@H]3NC(=O)[C@H](n5cc(COCCOCCCC(F)(F)C(F)(F)C(F)(F)C(F)(F)F)nn5)c5ccc(O)c(c5)Oc5cc(O)cc(c5)[C@H](NC3=O)C(=O)N[C@H]4C(=O)N[C@H]3C(=O)N[C@@H]2C(=O)N[C@H](C(=O)O)c2cc(O)cc(O)c2-c2cc3ccc2O)O[C@H](CO)[C@@H](O)[C@@H]1O"
systemtested = "E. faecium"
result = "> 8 µg/mL"

